Values were extracted from ChEMBL document CHEMBL3988442.

Catalogue of compounds with associated Percent Effect
- System: Wolbachia pipientis
- experimental protocol: Anti-Wolbachia Cell-Based Screen
- Assay type: functional
- Set-up: scale not given: in the data most compounds retested in dose-response had high values
- setup conditions: 5 µM
In all, about 48,000 compounds went through this assay and about 13,000 (27%) showed an effect of 50% or more. Some of the results follow.
The reply should consist of the numeric value with the unit placed after it.

compound | value
Cc1ccc(C(CNC(=O)Cc2nc3ncccn3n2)N(C)C)cc1 (stereo not given) | -10.58%
CCC(CNC(=O)OC)(OC)c1ccccc1 (stereo not given) | 1.829%
Cc1cccc(CN2CC3(CCN(Cc4ccoc4)CC3)OCC2=O)n1.O=C(O)C(F)(F)F.O=C(O)C(F)(F)F | 122.8%
Cc1nn(C)c2nc(N(Cc3ccccn3)CC3CCCO3)sc12 (stereo not given) | -1.375%

Could you now consider this next compound?
Provide Percent Effect value for the following compound: O=C(O)C(F)(F)F.O=C1COC2(CCN(Cc3ccco3)CC2)CN1CCn1cccn1
4.018%

* * *

- Tested on: Wolbachia pipientis
- experimental protocol: Anti-Wolbachia Cell-Based Screen
- Assay type: functional
- Design: scale not given: in the data most compounds retested in dose-response had high values
- setup conditions: 5 µM
The campaign covered roughly 48,000 compounds. About 13,000 (27%) showed an effect of 50% or more. This is one part of the list.
Catalogue of compounds with associated Percent Effect
Give your result in % as a bare value.

compound | value
O=S(=O)(Cc1c(F)cccc1Cl)Cc1nnnn1C1CC1 | 95.69
Cn1cc(CN2CC(C(=O)Nc3ccccc3)C3(CCOCC3)C2)cn1.O=C(O)C(F)(F)F (stereo not given) | 0.729
CC(=O)N1CC(=O)N(c2cnn(C)c2)CC12CCN(Cc1cccs1)C2.O=C(O)C(F)(F)F (stereo not given) | 106.8
CCOC(=O)N1CCC(NC(=O)Nc2cccnc2OCC)CC1 | 102.8
CCOc1ncccc1NC(=O)N1CCCC1c1cc(C)no1 (stereo not given) | 4.545

Provide Percent Effect value for the following compound: COc1ncccc1NC(=O)NCC1CC1
5.858

* * *

Catalogue of compounds with associated Percent Effect
- System: Wolbachia pipientis
- experimental protocol: Anti-Wolbachia Cell-Based Screen
- Format: functional
- Parameters: scale not given: in the data most compounds retested in dose-response had high values
- setup conditions: 5 µM
About 13,000 (27%) of roughly 48,000 compounds showed an effect of 50% or more. This is one part of the list.
Give your result in % as a bare value.

compound | Percent Effect (%)
CC(C)(C)c1cc(NC(=O)CN(Cc2cccs2)Cc2cccs2)on1 | 32.93
Cc1nsc(NC(=O)N2CCc3sccc3C2)n1 | 105.8
CC(C)N1CCN(S(=O)(=O)c2ncn(C)c2Cl)CC1 | 22.53
O=C(Cc1ccccn1)N1CCC2(CC1)CN(c1ncccn1)CCO2.O=C(O)C(F)(F)F.O=C(O)C(F)(F)F | 8.931
Cc1nc(N2CCC(C(O)c3nccn3C)CC2)c2nc(C)oc2n1 (configuration not stated) | 6.999

Provide Percent Effect value for the following compound: CC(C)N1CCC(CC(=O)N2CCCCC2CCn2cccn2)CC1 (configuration not stated)
17.49

Provide Percent Effect value for the following compound: CN(C)[C@@H]1CO[C@H](CNC(=O)c2cccs2)[C@H]1O
5.998

Provide Percent Effect value for the following compound: Cc1nc(-c2cc(Cl)cc3c2OC(CN)C3)c[nH]1 (configuration not stated)
-15.93

Provide Percent Effect value for the following compound: CSc1ncccc1C(=O)N1CCC2(CC1)OCCCC2O (configuration not stated)
-4.189

Provide Percent Effect value for the following compound: COc1ccc(CN2CCCn3cnc(COC(C)C)c3C2)cc1.O=C(O)C(F)(F)F
23.92
